- procedure text: Induction of quorum sensing activity in Pseudomonas aeruginosa assessed as maximal induction of LasR-dependent yellow fluorescent protein emission by luminescence assay
pEC50: −log10 of the molar value.
measurement type: pEC50

1 = O=C(Oc1c(Br)cc(Br)cc1CNC(=O)c1ccccc1Cl)c1ccc(F)cc1
2 = Cc1cc(Br)cc(CNC(=O)c2ccccc2Cl)c1OC(=O)c1ccc(Cl)cc1Cl
3 = O=C(Oc1c(Br)cc(Br)cc1CNC(=O)c1ccccc1[N+](=O)[O-])c1ccccc1Cl
Query :: Let's sort these by pEC50, smallest first. Go ahead? Give me the labels in the order the question wants.
Result :: 2, 1, 3

###

- tgt: Transcriptional activator protein LasR (Pseudomonas aeruginosa (strain ATCC 15692 / PAO1 / 1C / PRS 101 / LMG12228), UniProt P25084)
- Sequence (P25084 whole entry): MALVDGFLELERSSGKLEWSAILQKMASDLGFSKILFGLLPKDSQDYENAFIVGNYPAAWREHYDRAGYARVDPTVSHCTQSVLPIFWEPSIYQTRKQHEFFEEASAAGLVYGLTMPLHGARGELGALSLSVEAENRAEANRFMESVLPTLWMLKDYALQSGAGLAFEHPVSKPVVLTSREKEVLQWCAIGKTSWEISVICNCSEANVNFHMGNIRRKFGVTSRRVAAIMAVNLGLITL
- procedure text: Agonist activity at Pseudomonas aeruginosa LasR receptor expressed in Escherichia coli in absence of natural autoinducer
- Type: functional
Recorded pEC50 for the following molecules
# log scale: pEC50 equals minus log10 of the concentration in mol/L

In [3]: df
Out[3]:
                         smiles_input  measurement_type  measured_value
0  O=C(CC(=O)N[C@H]1CCOC1=O)Cc1ccccc1             pEC50            6.27

Query :: What value of measured pEC50 is listed for CCCCCCCCCCCC(=O)CC(=O)N[C@H]1CCOC1=O ?
Result :: 8.00
